Molecular target: MYT1 protein (Homo sapiens (Human), UniProt Q99640)
Sequence (Q99640 whole entry): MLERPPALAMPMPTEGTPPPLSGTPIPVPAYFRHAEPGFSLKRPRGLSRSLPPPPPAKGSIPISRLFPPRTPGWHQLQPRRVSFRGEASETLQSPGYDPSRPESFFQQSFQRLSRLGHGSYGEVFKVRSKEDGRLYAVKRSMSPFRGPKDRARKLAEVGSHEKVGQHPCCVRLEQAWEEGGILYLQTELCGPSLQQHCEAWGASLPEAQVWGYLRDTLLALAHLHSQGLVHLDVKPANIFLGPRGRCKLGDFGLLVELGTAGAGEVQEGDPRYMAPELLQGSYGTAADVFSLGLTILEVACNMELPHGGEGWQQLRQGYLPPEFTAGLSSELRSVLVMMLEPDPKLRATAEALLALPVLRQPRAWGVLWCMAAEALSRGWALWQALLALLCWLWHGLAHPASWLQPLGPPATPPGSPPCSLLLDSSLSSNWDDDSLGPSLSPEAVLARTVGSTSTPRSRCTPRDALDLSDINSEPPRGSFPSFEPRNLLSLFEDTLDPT
Experiment: Test for binding to ATP binding site of MYT1 (Kinase Tracer 178 / Eu-Anti-GST antibody TR-FRET)
Details: ATP binding site of MYT1, 30 minutes at room temperature
Define the label as Criterion met when IC50 is strictly less than 4 nM and as Criterion not met in all remaining cases.

Asked: # strict comparison: is reported IC50 < 4 nM? input = `Nc1c(-c2cccc(O)c2)c2cc(C3CC3)c3ccccc3c2[nH]c1=O`
Given back: Criterion not met

Asked: # strict comparison: is reported IC50 < 4 nM? input = `CP(C)(=O)c1cc2c(-c3ccc(F)c4[nH]ncc34)c(N)c(=O)[nH]c2c2ccccc12`
Given back: Criterion not met

Asked: # strict comparison: is reported IC50 < 4 nM? input = `Nc1c(-c2ccc(F)c3[nH]ncc23)c2cc(O)c3ncccc3c2[nH]c1=O`
Given back: Criterion met

Asked: # strict comparison: is reported IC50 < 4 nM? input = Nc1c(-c2ccc(F)c3[nH]ncc23)c2cc(C3CCC(F)(F)C3)c3ncccc3c2[nH]c1=O (stereo not shown)
Given back: Criterion not met

Asked: # strict comparison: is reported IC50 < 4 nM? input = `CC(C)(C)c1ccc2c(ccc3c(-c4ccc(F)c5[nH]ncc45)c(N)c(=O)[nH]c32)n1`
Given back: Criterion not met

Asked: # strict comparison: is reported IC50 < 4 nM? input = `Nc1c(-c2ccc(F)c3[nH]ncc23)c2cc(N3CC4CC(C3)O4)c3ncccc3c2[nH]c1=O`
Given back: Criterion not met

Asked: # strict comparison: is reported IC50 < 4 nM? input = `Nc1c(-c2ccc(F)c3[nH]ncc23)c2cc(N3CCCCC3)c3ncccc3c2[nH]c1=O`
Given back: Criterion not met

Asked: # strict comparison: is reported IC50 < 4 nM? input = `Nc1c(-c2ccc(F)c3[nH]ncc23)c2cc(F)c3ncccc3c2[nH]c1=O`
Given back: Criterion not met

Asked: # strict comparison: is reported IC50 < 4 nM? input = `CC(C)Oc1cc2c(-c3ccc(F)c4[nH]ncc34)c(N)c(=O)[nH]c2c2nccnc12`
Given back: Criterion met

Asked: # strict comparison: is reported IC50 < 4 nM? input = `CC(C)c1cc(Cl)cc2c(-c3ccc(Cl)c4[nH]ncc34)c(N)c(=O)[nH]c12`
Given back: Criterion not met

Asked: # strict comparison: is reported IC50 < 4 nM? input = `C=Cc1cc2c(-c3cc(F)c(F)c4[nH]ncc34)c(N)c(=O)[nH]c2c2cccnc12`
Given back: Criterion not met

Asked: # strict comparison: is reported IC50 < 4 nM? input = `Cc1cc2c(-c3ccc(F)c4[nH]ncc34)c(N)c(=O)[nH]c2c2sncc12`
Given back: Criterion met

Asked: # strict comparison: is reported IC50 < 4 nM? input = `Nc1c(-c2ccc(F)c3[nH]ncc23)c2cc(C3CC3)c3ccc(Cl)cc3c2[nH]c1=O`
Given back: Criterion not met

Asked: # strict comparison: is reported IC50 < 4 nM? input = `Nc1c(-c2ccc(F)c3[nH]ncc23)c2cc(N3CCN(CC(F)F)CC3)c3cccnc3c2[nH]c1=O`
Given back: Criterion not met

Asked: # strict comparison: is reported IC50 < 4 nM? input = `N#C[C@H]1C[C@@H](c2cc3c(-c4ccc(F)c5[nH]ncc45)c(N)c(=O)[nH]c3c3cccnc32)C1`
Given back: Criterion met

Asked: # strict comparison: is reported IC50 < 4 nM? input = `N#Cc1cc2c(-c3ccc(C#N)c4[nH]ncc34)c(N)c(=O)[nH]c2c2cccnc12`
Given back: Criterion not met

Asked: # strict comparison: is reported IC50 < 4 nM? input = `CN(C)C(=O)Cc1cc2c(-c3ccc(F)c4[nH]ncc34)c(N)c(=O)[nH]c2c2cccnc12`
Given back: Criterion not met

Asked: # strict comparison: is reported IC50 < 4 nM? input = `Nc1c(-c2ccc(F)c3[nH]ncc23)c2cc(C3CC3)c3nccnc3c2[nH]c1=O`
Given back: Criterion met

Asked: # strict comparison: is reported IC50 < 4 nM? input = Nc1c(-c2ccc(F)c3[nH]ncc23)c2cc(C3CCNC3)c3ncccc3c2[nH]c1=O.O=CO (stereo not shown) [Compound C146, formate]
Given back: Criterion met

Asked: # strict comparison: is reported IC50 < 4 nM? input = `Cc1cc2c(-c3ccc(F)c4[nH]ncc34)c(N)c(=O)[nH]c2c2cccc(Cl)c12`
Given back: Criterion not met

Asked: # strict comparison: is reported IC50 < 4 nM? input = CC(C)(C)C1CC(c2cc3c(-c4ccc(F)c5[nH]ncc45)c(N)c(=O)[nH]c3c3cccnc23)C1 (stereo not shown)
Given back: Criterion not met

Asked: # strict comparison: is reported IC50 < 4 nM? input = `Cc1cc2c(-c3ccc(F)c4[nH]ncc34)c(N)c(=O)[nH]c2c2ncncc12`
Given back: Criterion met

Asked: # strict comparison: is reported IC50 < 4 nM? input = `Nc1c(-c2cccc3[nH]ccc23)c2cc(Cl)ccc2[nH]c1=O`
Given back: Criterion not met

Asked: # strict comparison: is reported IC50 < 4 nM? input = `N#CC1(COc2cc3c(-c4ccc(F)c5[nH]ncc45)c(N)c(=O)[nH]c3c3cccnc23)CC1`
Given back: Criterion met

Asked: # strict comparison: is reported IC50 < 4 nM? input = `Nc1c(-c2ccc(F)c3[nH]ncc23)c2cc(C3CC3)c3cc(Cl)ccc3c2[nH]c1=O`
Given back: Criterion not met

Asked: # strict comparison: is reported IC50 < 4 nM? input = `CC#Cc1cc2c(-c3ccc(F)c4[nH]ncc34)c(N)c(=O)[nH]c2c2ccccc12`
Given back: Criterion not met

Asked: # strict comparison: is reported IC50 < 4 nM? input = CCC(C)c1cc2c(-c3ccc(F)c4[nH]ncc34)c(N)c(=O)[nH]c2c2cccnc12 (stereo not shown)
Given back: Criterion not met

Asked: # strict comparison: is reported IC50 < 4 nM? input = `Nc1c(-c2ccc(F)c3[nH]ncc23)c2cc(N3CC4(COC4)C3)c3ncccc3c2[nH]c1=O`
Given back: Criterion met

----------
Kindly state IC50 for each of the entries shown.
Molecular target: MYT1 protein (Homo sapiens (Human), UniProt Q99640)
Assay: Test for binding to ATP binding site of MYT1 (Kinase Tracer 178 / Eu-Anti-GST antibody TR-FRET)
Conditions: ATP binding site of MYT1, 30 minutes at room temperature
// return numeric value only (unit: nM, not printed)

Asked: Using the record for Nc1c(-c2ccc(F)c3[nH]ncc23)c2cc(O[C@H]3CCCOC3)c3ncccc3c2[nH]c1=O [Compound C51] , state its measured IC50.
Given back: 1.7

Asked: Using the record for Nc1c(-c2ccc(F)c3[nH]ncc23)c2cc(C3CCN(C4CCC4)CC3)c3ncccc3c2[nH]c1=O [Compound C134] , state its measured IC50.
Given back: 3.6

Asked: Using the record for Nc1cc(-c2c(N)c(=O)[nH]c3ccc(Cl)cc23)ccn1 [Compound A47] , state its measured IC50.
Given back: 3300

Asked: Using the record for Nc1c(-c2cccc3[nH]ncc23)c2ccccc2oc1=O [Compound E1] , state its measured IC50.
Given back: 1100

Asked: Using the record for Nc1c(-c2ccc(F)c3[nH]ncc23)c2cc(Br)c3cnsc3c2[nH]c1=O [Compound H1] , state its measured IC50.
Given back: 6.2

Asked: Using the record for Cc1cc2c(-c3ccc(F)c4[nH]ncc34)c(N)c(=O)[nH]c2c2cc(F)cnc12 [Compound F3] , state its measured IC50.
Given back: 4

Asked: Using the record for Cc1cc2c(-c3ccc(F)c4[nH]ncc34)c(N)c(=O)[nH]c2c2ncccc12 [Compound D3] , state its measured IC50.
Given back: 4.6

Asked: Using the record for Cl.Nc1c(-c2cccc3[nH]ncc23)c2cc(C3CC3)c3cc(F)ccc3c2[nH]c1=O [Compound B48, hydrochloride] , state its measured IC50.
Given back: 18

----------
Kindly state log10(IC50) for each of the entries shown.
Molecular target: MYT1 protein (Homo sapiens (Human))
Experiment: Test for binding to ATP binding site of MYT1 (Kinase Tracer 178 / Eu-Anti-GST antibody TR-FRET)
Settings: ATP binding site of MYT1, 30 minutes at room temperature
Description: The binding capacity of each compound to the ATP binding site of MYT1 Kinase protein was evaluated. […] Thereafter, fluorescence wavelengths of 665 nm and 615 nm generated by irradiation with excitation light of 340 nm were detected using Envision (manufactured by PerkinElmer). The proportion of Tracer bound to MYT1 protein was calculated for every condition by dividing the intensity at the fluorescence wavelength of 665 nm by the intensity at the fluorescence wavelength of 615 nm.
Where a name gives a salt, the structure may show the parent alone.
Lab note - IC50 converted to log10 from values in nM.

Asked: Using the record for `Nc1c(-c2ccc(Cl)c3[nH]ncc23)c2cc(C(=O)N3CCOCC3)ccc2[nH]c1=O` , state its measured log10(IC50).
Given back: 1.30

Asked: Using the record for `Nc1c(-c2ccc(F)c3[nH]ncc23)c2cc(C3CCN(C4CCOCC4)CC3)c3cccnc3c2[nH]c1=O` , state its measured log10(IC50).
Given back: 0.89

Asked: Using the record for `Cn1cc(-c2cc3c(-c4ccc(F)c5[nH]ncc45)c(N)c(=O)[nH]c3c3ccccc23)cn1` , state its measured log10(IC50).
Given back: 0.96

Asked: Using the record for `Nc1c(-c2ccc(F)c3[nH]ncc23)c2cc(C3CC3)c3ccsc3c2[nH]c1=O` , state its measured log10(IC50).
Given back: 0.36

Asked: Using the record for CC(O)c1ccc2[nH]c(=O)c(N)c(-c3ccc(Cl)c4[nH]ncc34)c2c1 (stereo not shown) , state its measured log10(IC50).
Given back: 1.20

Asked: Using the record for Nc1c(-c2c(F)ccc3[nH]ncc23)c2cc(C3CC3)c3ncccc3c2[nH]c1=O (atropisomer, axis not shown) [Compound C157] , state its measured log10(IC50).
Given back: 2.49

Asked: Using the record for `Cc1ccc(-c2c(N)c(=O)[nH]c3ccc(Cl)cc23)c2cn[nH]c12` , state its measured log10(IC50).
Given back: 0.85

Asked: Using the record for `Cc1cc2c(-c3ccc(F)c4[nH]ncc34)c(N)c(=O)[nH]c2c2cccnc12` , state its measured log10(IC50).
Given back: 0.40

Asked: Using the record for `Nc1c(-c2ccc(F)c3[nH]ncc23)c2cc(Br)c3nccnc3c2[nH]c1=O` , state its measured log10(IC50).
Given back: 1.20

Asked: Using the record for `Nc1c(-c2ccc(F)c3[nH]ncc23)c2cc(Cl)c3ncccc3c2[nH]c1=O` , state its measured log10(IC50).
Given back: 0.49

Asked: Using the record for `Nc1c(-c2ccc(F)c3[nH]ncc23)c2cc(OCC3CC(F)(F)C3)c3ncccc3c2[nH]c1=O` , state its measured log10(IC50).
Given back: 0.81

Asked: Using the record for `Nc1c(-c2ccc(F)c3[nH]ncc23)c2cc(OC3CC(F)(F)C3)c3ncccc3c2[nH]c1=O` , state its measured log10(IC50).
Given back: 0.70

Asked: Using the record for Nc1c(-c2cccc(F)c2)c2ccc3ccccc3c2[nH]c1=O [Compound B50, hydrochloride] , state its measured log10(IC50).
Given back: 2.88

Asked: Using the record for `Nc1c(-c2cc(F)c(F)c3[nH]ncc23)c2c(F)cc3ncccc3c2[nH]c1=O` , state its measured log10(IC50).
Given back: -0.14

Asked: Using the record for `CCCc1cc2c(-c3ccc(F)c4[nH]ncc34)c(N)c(=O)[nH]c2c2cccnc12` , state its measured log10(IC50).
Given back: 0.43

Asked: Using the record for `Nc1c(-c2ccc(F)c3[nH]ncc23)c2cc(N3CCN4CCOC[C@H]4C3)c3cccnc3c2[nH]c1=O` , state its measured log10(IC50).
Given back: 1.69

Origin of values: patent US20260062412A1
